# system tested: UniProt P12493
# procedure summary: HTRF-based CAI binding competition assay
# measurement context: read-out: inhibition of CA CTD-CAI HTRF signal

compound	inhibition at 50 µM
C[C@H](CCC(=O)NCC(=O)O)[C@H]1CC[C@H]2[C@@H]3CC[C@@H]4C[C@H](O)CC[C@]4(C)[C@H]3C[C@H](O)[C@]12C [GDC, glycodeoxycholate]	< 20%
O=c1c2ccccc2[se]n1-c1ccccc1	< 3.2%
C[C@H](CCC(=O)NCCS(=O)(=O)O)[C@H]1CC[C@H]2[C@@H]3[C@H](O)C[C@@H]4C[C@H](O)CC[C@]4(C)[C@H]3C[C@H](O)[C@]12C	< 20%
CC(=O)Nc1cccc(-n2c(=O)n(C3CC3)c(=O)c3c(Nc4ccc(I)cc4F)n(C)c(=O)c(C)c32)c1	< 3.2%
